- measured-target: UniProt Q8E183
- Sequence (Q8E183 1-426): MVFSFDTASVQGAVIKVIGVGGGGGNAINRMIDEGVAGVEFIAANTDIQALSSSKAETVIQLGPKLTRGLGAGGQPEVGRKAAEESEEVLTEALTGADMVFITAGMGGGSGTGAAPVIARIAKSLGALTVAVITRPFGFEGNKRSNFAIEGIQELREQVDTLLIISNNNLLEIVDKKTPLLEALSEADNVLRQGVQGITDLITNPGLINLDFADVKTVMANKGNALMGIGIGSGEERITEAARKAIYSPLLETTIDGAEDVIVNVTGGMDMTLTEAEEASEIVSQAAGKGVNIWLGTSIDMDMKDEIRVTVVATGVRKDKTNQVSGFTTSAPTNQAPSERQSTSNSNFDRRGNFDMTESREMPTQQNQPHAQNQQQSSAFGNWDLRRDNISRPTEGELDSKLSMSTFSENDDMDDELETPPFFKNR
- experiment-summary: Fluorescence anisotropy binding of BOFP to SagFtsZ
- assay-setup: 37 °C; 50 mM Tris-HCl (pH 7.6), 50 mM KCl; 0.1 µM BOFP; read-out: Kd - 37 °C
measured-endpoint: pKd
In textbook form, pKd equals minus log to base ten of the concentration in mol/L.

Please tell me: pKd of CC1=CC(C)=[N+]2C1=Cc1ccc(CCC(=O)OCC(Oc3ccc(F)c(C(N)=O)c3F)c3nc(-c4ccc(C(F)(F)F)cc4)c(Br)o3)n1[B-]2(F)F (stereo not shown) , system UniProt Q8E183? 5.88

----------
- measured-target: E. faecium (EfmFtsZ) (Enterococcus faecium)
- Sequence (Q3Y2I1 1-413): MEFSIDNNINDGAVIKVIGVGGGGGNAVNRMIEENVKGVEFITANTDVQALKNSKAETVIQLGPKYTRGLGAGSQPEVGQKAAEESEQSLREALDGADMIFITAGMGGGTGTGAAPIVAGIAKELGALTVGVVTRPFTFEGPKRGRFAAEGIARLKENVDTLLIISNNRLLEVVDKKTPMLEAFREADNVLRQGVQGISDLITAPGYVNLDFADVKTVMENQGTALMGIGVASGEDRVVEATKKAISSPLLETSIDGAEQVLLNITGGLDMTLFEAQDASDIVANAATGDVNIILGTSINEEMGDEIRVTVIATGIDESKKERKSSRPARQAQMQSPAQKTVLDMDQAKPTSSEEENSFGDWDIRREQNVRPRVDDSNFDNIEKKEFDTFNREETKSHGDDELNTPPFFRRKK
- experiment-summary: Fluorescence anisotropy binding of BOFP to EfmFtsZ
- assay-setup: 15 °C; 50 mM Tris-HCl (pH 7.6), 50 mM KCl; 0.1 µM BOFP; read-out: Kd - 15 °C
measured-endpoint: Kd (nM)
# unit: nM | format: bare number

Sample CC1=CC(C)=[N+]2C1=Cc1ccc(CCC(=O)OCC(Oc3ccc(F)c(C(N)=O)c3F)c3nc(-c4ccc(C(F)(F)F)cc4)c(Br)o3)n1[B-]2(F)F (stereo not shown) — what was its Kd? 2500

----------
- measured-target: S. aureus (SaFtsZ) (Staphylococcus aureus, UniProt P0A031)
- Construct: 6xHis (C); made in house; host or cells: E. coli BLR (DE3), pET-22b(+)
- Sequence (P0A031 whole entry): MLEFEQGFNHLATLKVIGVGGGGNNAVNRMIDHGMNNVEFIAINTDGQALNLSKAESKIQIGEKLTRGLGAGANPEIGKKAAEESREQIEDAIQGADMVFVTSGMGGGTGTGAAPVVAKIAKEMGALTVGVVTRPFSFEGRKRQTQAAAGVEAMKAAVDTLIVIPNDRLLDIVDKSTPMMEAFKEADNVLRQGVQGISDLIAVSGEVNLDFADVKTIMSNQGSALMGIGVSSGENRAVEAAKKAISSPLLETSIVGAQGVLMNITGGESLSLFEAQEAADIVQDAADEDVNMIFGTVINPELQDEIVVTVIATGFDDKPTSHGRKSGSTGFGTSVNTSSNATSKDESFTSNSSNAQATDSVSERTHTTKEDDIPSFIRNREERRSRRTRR
- experiment-summary: biochemical
- Type: binding
- assay-setup: range over 15 to 37 °C; read-out: Kd range
measured-endpoint: Kd

Entry under review: CC1=CC(C)=[N+]2C1=Cc1ccc(CCC(=O)OCC(Oc3ccc(F)c(C(N)=O)c3F)c3nc(-c4ccc(C(F)(F)F)cc4)c(Br)o3)n1[B-]2(F)F (stereo not shown) . Reported Kd? 900 to 3100 nM

----------
- measured-target: A. baumannii (AbFtsZ) (Acinetobacter baumannii, UniProt V5V8B6)
- Sequence (V5V8B6 1-391): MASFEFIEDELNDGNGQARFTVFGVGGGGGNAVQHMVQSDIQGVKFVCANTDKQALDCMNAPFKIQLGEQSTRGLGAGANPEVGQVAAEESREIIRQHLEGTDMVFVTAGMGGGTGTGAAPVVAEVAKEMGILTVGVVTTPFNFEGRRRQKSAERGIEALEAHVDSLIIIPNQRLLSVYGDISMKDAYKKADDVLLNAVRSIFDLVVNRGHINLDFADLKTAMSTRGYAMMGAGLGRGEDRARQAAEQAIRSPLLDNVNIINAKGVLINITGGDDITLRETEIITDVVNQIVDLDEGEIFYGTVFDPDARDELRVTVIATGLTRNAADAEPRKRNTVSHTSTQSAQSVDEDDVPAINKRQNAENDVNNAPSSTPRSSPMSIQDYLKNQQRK
- experiment-summary: Fluorescence anisotropy binding of BOFP to AbFtsZ
- assay-setup: 15 °C; 50 mM Tris-HCl (pH 7.6), 50 mM KCl; 0.1 µM BOFP; read-out: Kd - 15 °C
measured-endpoint: Kd
Give me the value, and tack the unit on after it.

Quick one: Kd of CC1=CC(C)=[N+]2C1=Cc1ccc(CCC(=O)OCC(Oc3ccc(F)c(C(N)=O)c3F)c3nc(-c4ccc(C(F)(F)F)cc4)c(Br)o3)n1[B-]2(F)F (stereo not shown) ? 400 nM

----------
- measured-target: S. pyogenes (SpyFtsZ) (Streptococcus pyogenes, UniProt Q99YV7)
- Sequence (Q99YV7 entry or part of it): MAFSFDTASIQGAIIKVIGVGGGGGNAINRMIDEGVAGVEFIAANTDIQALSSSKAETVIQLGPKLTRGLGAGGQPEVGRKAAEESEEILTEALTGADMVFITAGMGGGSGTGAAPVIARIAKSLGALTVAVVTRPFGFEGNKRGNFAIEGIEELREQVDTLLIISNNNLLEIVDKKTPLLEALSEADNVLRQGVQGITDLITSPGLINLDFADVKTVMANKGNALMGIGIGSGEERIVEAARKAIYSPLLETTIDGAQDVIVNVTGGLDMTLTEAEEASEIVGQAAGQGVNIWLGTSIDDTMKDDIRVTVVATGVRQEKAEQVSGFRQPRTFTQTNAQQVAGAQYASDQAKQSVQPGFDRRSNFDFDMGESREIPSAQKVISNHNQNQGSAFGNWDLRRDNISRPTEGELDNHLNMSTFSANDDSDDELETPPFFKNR
- experiment-summary: Fluorescence anisotropy binding of BOFP to SpyFtsZ
- assay-setup: 15 °C; 50 mM Tris-HCl (pH 7.6), 50 mM KCl; 0.1 µM BOFP; read-out: Kd - 15 °C
- Procedure: Fluorescence anisotropy experiments were performed using an AVIV model ATF105 spectrofluorometer at 15, 25, or 37 °C. […] After each protein addition, the samples were equilibrated for 3 minutes, whereupon the fluorescence anisotropy was measured. […] The binding free energy (ΔG) at temperature T was derived from the corresponding Kd value determined at T using the following relationship:2 ΔG=−RTln(1/Kd) […]
measured-endpoint: Kd
Entry format: amount then unit.

Bench note: what Kd did CC1=CC(C)=[N+]2C1=Cc1ccc(CCC(=O)OCC(Oc3ccc(F)c(C(N)=O)c3F)c3nc(-c4ccc(C(F)(F)F)cc4)c(Br)o3)n1[B-]2(F)F (stereo not shown) [BOFP] show? 910 nM
